# tgt: C-C chemokine receptor type 5 (Homo sapiens, UniProt P51681)
# experiment: Antagonist activity at CCR5 expressed in CHO cells assessed as inhibition of RANTES-stimulated GTPgammaS binding at 300 nM by scintillation proximity assay
# Sequence (P51681 whole entry, looked up): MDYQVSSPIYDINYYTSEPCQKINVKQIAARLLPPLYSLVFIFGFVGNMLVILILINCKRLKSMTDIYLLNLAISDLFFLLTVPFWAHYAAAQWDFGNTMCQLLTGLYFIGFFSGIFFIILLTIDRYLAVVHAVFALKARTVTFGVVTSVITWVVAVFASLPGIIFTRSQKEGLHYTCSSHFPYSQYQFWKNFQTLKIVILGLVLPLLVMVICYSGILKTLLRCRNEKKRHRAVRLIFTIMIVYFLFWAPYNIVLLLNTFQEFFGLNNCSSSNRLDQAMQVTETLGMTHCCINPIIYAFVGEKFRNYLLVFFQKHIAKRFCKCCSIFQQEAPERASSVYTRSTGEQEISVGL
resultType: inhibition (%)

>>> valueobserved("CC1(NC(=O)Cc2ccc(Cl)c(Cl)c2)CCN(CC[C@H](NC(=O)C2CCCCC2)c2cccc(F)c2)CC1")
97
>>> valueobserved("CC1(NC(=O)C2CCCCC2)CCN(CC[C@H](NC(=O)C2CCCCC2)c2cccc(F)c2)CC1")
29
>>> valueobserved("CC1(NC(=O)c2cccnc2)CCN(CC[C@H](NC(=O)C2CCCCC2)c2cccc(F)c2)CC1")
44
>>> valueobserved("CC1(NC(=O)CC23CC4CC(CC(C4)C2)C3)CCN(CC[C@H](NC(=O)C2CCCCC2)c2cccc(F)c2)CC1")
46

* * *

Known pIC50 of a selection of compounds
# tgt: UniProtKB P51681
# experiment: Antagonist activity at CCR5 expressed in CHO cells assessed as inhibition of RANTES-stimulated GTPgammaS binding by scintillation proximity assay
# Sequence (P51681 whole entry): as the sequence (P51681 whole entry, looked up) above
pIC50: −log10 of the molar value.
resultType: pIC50

>>> valueobserved("COC(=O)C1(Cc2ccccc2)CCN(CC[C@H](NC(=O)C2CCC2)c2ccc(C(F)(F)F)cc2)CC1")
5.00
>>> valueobserved("Cc1nc2cccnc2n1[C@H]1C[C@H]2CC[C@@H](C1)N2CC[C@H](NC(=O)c1ccc(F)cc1)c1cccc2ccccc12")
5.00
>>> valueobserved("Cc1nnc(C(C)C)n1[C@H]1C[C@H]2CC[C@@H](C1)N2CC[C@H](NC(=O)COc1ccccc1)c1ccc(C(F)(F)F)cc1")
6.60

* * *

# tgt: C-C chemokine receptor type 5 (Homo sapiens, UniProt P51681)
# experiment: Antagonist activity at CCR5 expressed in CHO cells assessed as inhibition of RANTES-stimulated GTPgammaS binding at 300 nM by scintillation proximity assay
resultType: inhibition (%)

>>> valueobserved("CC1(NC(=O)c2ccc(C(F)(F)F)cc2)CCN(CC[C@H](NC(=O)C2CCCCC2)c2cccc(F)c2)CC1")
7
>>> valueobserved("CC1(NC(=O)Cc2ccc(F)cc2)CCN(CC[C@H](NC(=O)C2CCCCC2)c2cccc(F)c2)CC1")
95
>>> valueobserved("CC1(NC(=O)Cc2ccc(Cl)cc2)CCN(CC[C@H](NC(=O)C2CCCCC2)c2cccc(F)c2)CC1")
91
>>> valueobserved("COc1ccc(C(=O)NC2(C)CCN(CC[C@H](NC(=O)C3CCCCC3)c3cccc(F)c3)CC2)cc1")
33

* * *

# tgt: UniProtKB P51681
# experiment: Antagonist activity at CCR5 expressed in CHO cells assessed as inhibition of RANTES-stimulated GTPgammaS binding at 30 nM by scintillation proximity assay
Known inhibition of a selection of compounds
resultType: inhibition (%)

>>> valueobserved("CC1(NC(=O)Cc2ccc(F)cc2)CCN(CC[C@H](NC(=O)C2CCCCC2)c2cccc(F)c2)CC1")
31
>>> valueobserved("CC1(NC(=O)Cc2ccc(Cl)c(Cl)c2)CCN(CC[C@H](NC(=O)C2CCCCC2)c2cccc(F)c2)CC1")
36
>>> valueobserved("CC1(NC(=O)C2CCCCC2)CCN(CC[C@H](NC(=O)C2CCCCC2)c2cccc(F)c2)CC1")
6
>>> valueobserved("COc1ccc(C(=O)NC2(C)CCN(CC[C@H](NC(=O)C3CCCCC3)c3cccc(F)c3)CC2)cc1")
9
>>> valueobserved("CC1(NC(=O)c2cccnc2)CCN(CC[C@H](NC(=O)C2CCCCC2)c2cccc(F)c2)CC1")
35
>>> valueobserved("CC1(NC(=O)CC23CC4CC(CC(C4)C2)C3)CCN(CC[C@H](NC(=O)C2CCCCC2)c2cccc(F)c2)CC1")
21
>>> valueobserved("CC1(NC(=O)c2ccc(C(F)(F)F)cc2)CCN(CC[C@H](NC(=O)C2CCCCC2)c2cccc(F)c2)CC1")
3
>>> valueobserved("CC1(NC(=O)Cc2ccc(Cl)cc2)CCN(CC[C@H](NC(=O)C2CCCCC2)c2cccc(F)c2)CC1")
28
